procedureSummary: Half life in Sprague-Dawley rat at 5 mg/kg, iv measured for 24 hrs
Assay type: ADME, organism-based
reportedConditions: in vivo
quantityMeasured: half-life (min)
Numeric answer only, unit min assumed.

stdin: Please look at this compound and report its half-life: COc1cc(CC(=O)N2CCC(NC(=O)NCc3ccc(OC(F)(F)F)cc3)CC2)cc(OC)c1
stdout: 25.2

---

testedSystem: Cytochrome P450 2C19 (Homo sapiens)
Sequence (P33261 whole entry): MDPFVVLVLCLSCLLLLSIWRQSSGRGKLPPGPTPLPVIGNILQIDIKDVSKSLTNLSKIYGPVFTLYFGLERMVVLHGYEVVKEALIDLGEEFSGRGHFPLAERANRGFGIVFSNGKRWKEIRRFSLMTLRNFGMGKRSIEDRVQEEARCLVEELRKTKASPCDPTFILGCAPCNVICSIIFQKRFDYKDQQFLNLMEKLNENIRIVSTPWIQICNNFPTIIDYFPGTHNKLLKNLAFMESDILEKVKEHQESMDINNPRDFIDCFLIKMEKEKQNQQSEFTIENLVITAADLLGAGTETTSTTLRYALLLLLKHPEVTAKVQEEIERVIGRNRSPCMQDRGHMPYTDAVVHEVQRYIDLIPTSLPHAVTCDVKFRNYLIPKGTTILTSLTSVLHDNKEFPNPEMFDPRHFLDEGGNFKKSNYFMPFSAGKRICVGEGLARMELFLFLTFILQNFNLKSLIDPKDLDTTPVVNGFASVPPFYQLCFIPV
quantityMeasured: pIC50
Formally, pIC50 is defined as -log10 of the concentration c, with c in mol/L.

stdin: Please look at this molecule and report its pIC50: COc1cc(CC(=O)N2CCC(NC(=O)NCc3ccc(OC(F)(F)F)cc3)CC2)cc(OC)c1
stdout: 5.02
